Please go through the items and note down their Minimum inhibitory concentration, MIC.
Tested on: S. aureus (ISP479R)
Type: cell-based, Staphylococcus aureus
MEASUREMENT PARAMETERS: MHB, 2–5 × 10^5 CFU/mL, 16–18 h, 37 °C, OD600
Residues, ends and D or L forms follow the SMILES beside them.
One number for each entry, in µg/mL.

Any idea what Minimum inhibitory concentration, MIC was measured for N=C(N)NCCC[C@H](NC(=O)[C@H](Cc1c[nH]c2ccccc12)NC(=O)CCCCCCCCCCCNC(=O)[C@H](Cc1c[nH]c2ccccc12)NC(=O)[C@@H](N)CCCNC(=N)N)C(N)=O [S-7, Arg-Trp-(12-ADO)-Trp-Arg-CONH2] (HELM PEPTIDE1{R.W.[O=C(CCCCCCCCCCCN[*:1])[*:2]].W.R.[am]}$$$$V2.0) ?
11.3

Turning to the following compound.
Requested read-out: Minimum inhibitory concentration, MIC. Entry: N=C(N)NCCC[C@H](NC(=O)CCCCCCCCCCCNC(=O)[C@H](CCCNC(=N)N)NC(=O)[C@@H](N)Cc1c[nH]c2ccccc12)C(=O)N[C@@H](Cc1c[nH]c2ccccc12)C(N)=O [S-6, Trp-Arg-(12-ADO)-Arg-Trp-CONH2] (HELM PEPTIDE1{W.R.[O=C(CCCCCCCCCCCN[*:1])[*:2]].R.W.[am]}$$$$V2.0)
11.3
